The measurements presented in this section are drawn from patent US7511144B2.

# TARGET_OR_TEST_SYSTEM: Human MMP13 (Homo sapiens, UniProt P45452)
# Construct: purchased Chemicon CC068
# ASSAY_SUMMARY: MMP13 inhibition experiment
# Format: biochemical
# CONDITION_PARAMETERS: concentration required for 50% inhibition of enzyme activity; read-out: IC50 value MMP-13
# note: exactly 20 µM is not below, so it is 0.0; use 1.0 for IC50 strictly under it

MOLECULE | TARGET_OR_TEST_SYSTEM | LABEL_VALUE
Cc1cncc(C(CS(=O)(=O)c2ccc(OCc3cc(C)nc4ccc(F)cc34)cc2)N(O)C=O)c1 (stereo not shown) | Human MMP13 (Homo sapiens, UniProt P45452) | 0.0
CCN1CCC(=CC(CS(=O)(=O)c2ccc(OCc3cc(C)nc4ccccc34)cc2)N(O)C=O)CC1 (stereo not shown) | Human MMP13 (Homo sapiens, UniProt P45452) | 0.0
Cc1ccc2nc(C)cc(COc3ccc(S(=O)(=O)CC(CC4CCC(=NO)CC4)N(O)C=O)cc3)c2c1 (stereo not shown) | Human MMP13 (Homo sapiens, UniProt P45452) | 1.0

Please turn your attention to the following entry.
State whether 20 µM exceeds IC50 recorded for O=CN(O)C(C=C1CCC(=O)CC1)CS(=O)(=O)c1ccc(OCc2ccc3ccccc3n2)cc1 (stereo not shown) . 0.0
